Biological target: human IP6K2 (Homo sapiens)
Sequence (Q9UHH9 1-426): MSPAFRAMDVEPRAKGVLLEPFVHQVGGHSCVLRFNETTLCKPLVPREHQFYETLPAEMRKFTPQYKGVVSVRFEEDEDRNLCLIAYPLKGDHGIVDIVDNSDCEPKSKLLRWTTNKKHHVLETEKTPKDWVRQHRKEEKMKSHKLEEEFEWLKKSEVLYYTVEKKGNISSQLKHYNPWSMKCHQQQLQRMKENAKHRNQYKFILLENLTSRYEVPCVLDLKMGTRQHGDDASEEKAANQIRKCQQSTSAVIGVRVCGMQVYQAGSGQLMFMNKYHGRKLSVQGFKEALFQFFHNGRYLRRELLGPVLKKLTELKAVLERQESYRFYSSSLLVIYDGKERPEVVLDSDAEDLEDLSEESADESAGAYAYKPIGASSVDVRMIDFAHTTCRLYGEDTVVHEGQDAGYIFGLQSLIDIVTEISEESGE
Assay: ADP-Glo kinase assay for IP6K activity
Details: read-out: IC50 IP6K2; recombinant human IP6K2 12 nM, ATP 15 μM, InsP6 50 μM, 2 h; mean ± S.D.
observed property: IC50 (µM)

>>> df
                           structure_smiles  observed_property  value_reported
0  O=[N+]([O-])c1ccc(CNc2nc(NCc3cccc(C(F)(F)F)c3)nc3nc[nH]c23)cc1               IC50            0.85
